# System: 677734-321-R-J1-PDC complex spheroid viability
# experiment.description: Anticancer human tumor 677734-321-R-J1-PDC patient-derived soft tissue sarcoma cell line growth inhibition [POLQ]
# test.parameters: second compound 1 µM; first compound 0.1 µM; hits give low values
endpoint.label: viability, T/C

Record excerpt, results attached:
{"columns": ["molecule", "viability, T/C"],
 "data": [
  ["CCc1cc2c(N3CCc4c(cc(Cn5ccnc5)cc4-c4cn(C)nc4C(F)(F)F)C3=O)ccnc2c(OC)n1 + COC1C(OC(N)=O)C(O)C(Oc2ccc3c(O)c(NC(=O)c4ccc(O)c(CC=C(C)C)c4)c(=O)oc3c2C)OC1(C)C", "103%"],
  ["CCc1cc2c(N3CCc4c(cc(Cn5ccnc5)cc4-c4cn(C)nc4C(F)(F)F)C3=O)cc(C)nc2c(OC)n1 + COC1C(OC(N)=O)C(O)C(Oc2ccc3c(O)c(NC(=O)c4ccc(O)c(CC=C(C)C)c4)c(=O)oc3c2C)OC1(C)C", "105%"],
  ["O=C(Nc1ccc(O)c(NS(=O)(=O)c2ccc(F)cc2)c1)c1ccc(-c2ccccc2)cc1 + COC1C(OC(N)=O)C(O)C(Oc2ccc3c(O)c(NC(=O)c4ccc(O)c(CC=C(C)C)c4)c(=O)oc3c2C)OC1(C)C", "109%"]
]}

Using known records, supply viability, T/C for O=c1[nH]cc(F)c(=O)[nH]1 + Cc1cccc(N(C)C(=O)C2C(O)CCN2c2nc(C)cc(C(F)(F)F)c2C#N)c1 106%

###

# Test system: 677734-321-R-J1-PDC complex spheroid viability
# experiment.description: Anticancer human tumor 677734-321-R-J1-PDC cell line growth inhibition [POLQ]; active = viability on the fitted dose curve at most 10% of control; inactive = the rest;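 further: spheroids exposed to compounds for one week; 100% = vehicle DMSO treated spheroids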
# test.parameters: second compound 0.316 µM; first compound 0.0316 µM
Outcome (select one): true (active), false (inactive)

Could you please tell me the result logged for CC1COCCN1c1cc(C2(S(C)(=N)=O)CC2)nc(-c2ccnc3[nH]ccc23)n1 (configuration not stated) + COC1C(OC(N)=O)C(O)C(Oc2ccc3c(O)c(NC(=O)c4ccc(O)c(CC=C(C)C)c4)c(=O)oc3c2C)OC1(C)C in this assay? false

// outcome(item) with item = CCc1cc2c(N3CCc4c(cc(Cn5ccnc5)cc4-c4cn(C)nc4C(F)(F)F)C3=O)ccnc2c(OC)n1 + Nc1ccc(C#CCN(C(=O)Cc2ncc(C(F)(F)F)cc2C(F)(F)F)c2ccc(F)cc2)nn1 false

Field: outcome | Entry: COc1ccc([C@@H](O)c2cc(-c3ncnc4cc(N5CCOCC5)ccc34)c(F)cc2Cl)nn1 + Nc1ccc(C#CCN(C(=O)Cc2ncc(C(F)(F)F)cc2C(F)(F)F)c2ccc(F)cc2)nn1 false

Returns: the outcome recorded for CNCc1ccc(-c2[nH]c3cc(F)cc4c3c2CCNC4=O)cc1 + COC1C(OC(N)=O)C(O)C(Oc2ccc3c(O)c(NC(=O)c4ccc(O)c(CC=C(C)C)c4)c(=O)oc3c2C)OC1(C)C in this assay. false

Hi, do you know how CCc1c2c(nc3ccc(O)cc13)-c1cc3c(c(=O)n1C2)COC(=O)[C@]3(O)CC + Nc1ccc(C#CCN(C(=O)Cc2ncc(C(F)(F)F)cc2C(F)(F)F)c2ccc(F)cc2)nn1 came out in this test? true

Name the outcome recorded for COc1cccc2c1C(=O)c1c(O)c3c(c(O)c1C2=O)CC(O)(C(=O)CO)CC3OC1CC(N)C(O)C(C)O1 (configuration not stated) + Nc1ccc(C#CCN(C(=O)Cc2ncc(C(F)(F)F)cc2C(F)(F)F)c2ccc(F)cc2)nn1 in the assay. false

Which result was noted for this molecule in the test: CC1COCCN1c1cc(C2(S(C)(=N)=O)CC2)nc(-c2ccnc3[nH]ccc23)n1 (configuration not stated) + Cc1cccc(N(C)C(=O)C2C(O)CCN2c2nc(C)cc(C(F)(F)F)c2C#N)c1 false

Recorded test outcome, item COc1cc(C2c3cc4c(cc3C(OC3OC5COC(C)OC5C(O)C3O)C3COC(=O)C23)OCO4)cc(OC)c1O (configuration not stated) + Nc1ccc(C#CCN(C(=O)Cc2ncc(C(F)(F)F)cc2C(F)(F)F)c2ccc(F)cc2)nn1 false

Can you look up the reported call for COc1cc2cc(C(=O)CCC(=O)O)sc2cc1OC + Cc1cccc(N(C)C(=O)C2C(O)CCN2c2nc(C)cc(C(F)(F)F)c2C#N)c1 for me? false

What did the test return for CC1COCCN1c1cc(C2(O)CC3CCC(C2)O3)c2cnn(-c3ccn[nH]3)c2n1 (configuration not stated) + Nc1ccc(C#CCN(C(=O)Cc2ncc(C(F)(F)F)cc2C(F)(F)F)c2ccc(F)cc2)nn1 ? false

What was the test verdict on COc1cccc(OCCCN)c1-c1cc(Nc2cnc(C#N)cn2)n[nH]1 + COC1C(OC(N)=O)C(O)C(Oc2ccc3c(O)c(NC(=O)c4ccc(O)c(CC=C(C)C)c4)c(=O)oc3c2C)OC1(C)C ? false

Assay outcome for Cn1ncnc1[C@H]1c2n[nH]c(=O)c3cc(F)cc(c23)N[C@@H]1c1ccc(F)cc1 + COC1C(OC(N)=O)C(O)C(Oc2ccc3c(O)c(NC(=O)c4ccc(O)c(CC=C(C)C)c4)c(=O)oc3c2C)OC1(C)C : what was it? false

###

# Test system: 677734-321-R-J1-PDC complex spheroid viability
# experiment.description: Anticancer human tumor 677734-321-R-J1-PDC cell line growth inhibition [POLQ];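 further: spheroids exposed to compounds for one week; 100% = vehicle DMSO treated spheroids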
# test.parameters: second compound 0.1 µM; first compound 0.00316 µM; hits give low values
// classify: if (viability, T/C < 90%) Met else Not met

{"columns": ["compound", "label.value"],
 "data": [
  ["COc1cccc(OCCCN)c1-c1cc(Nc2cnc(C#N)cn2)n[nH]1 + Nc1ccc(C#CCN(C(=O)Cc2ncc(C(F)(F)F)cc2C(F)(F)F)c2ccc(F)cc2)nn1", "Met"],
  ["Cn1ncnc1[C@H]1c2n[nH]c(=O)c3cc(F)cc(c23)N[C@@H]1c1ccc(F)cc1 + Nc1ccc(C#CCN(C(=O)Cc2ncc(C(F)(F)F)cc2C(F)(F)F)c2ccc(F)cc2)nn1", "Not met"],
  ["CCc1c2c(nc3ccc(O)cc13)-c1cc3c(c(=O)n1C2)COC(=O)[C@]3(O)CC + Cc1cccc(N(C)C(=O)C2C(O)CCN2c2nc(C)cc(C(F)(F)F)c2C#N)c1", "Met"]
]}

Please state whether viability, T/C is below 90% for CCc1c2c(nc3ccc(O)cc13)-c1cc3c(c(=O)n1C2)COC(=O)[C@]3(O)CC + Nc1ccc(C#CCN(C(=O)Cc2ncc(C(F)(F)F)cc2C(F)(F)F)c2ccc(F)cc2)nn1 Met

# check: viability, T/C < 90% for C=CCn1c(=O)c2cnc(Nc3ccc(N4CCN(C)CC4)cc3)nc2n1-c1cccc(C(C)(C)O)n1 + Nc1ccc(C#CCN(C(=O)Cc2ncc(C(F)(F)F)cc2C(F)(F)F)c2ccc(F)cc2)nn1 Not met

Below 90% on viability, T/C? Entry CC[C@@]1(O)C(=O)OCc2c1cc1n(c2=O)Cc2cc3c(CN(C)C)c(O)ccc3nc2-1 + Nc1ccc(C#CCN(C(=O)Cc2ncc(C(F)(F)F)cc2C(F)(F)F)c2ccc(F)cc2)nn1 Not met

State whether 90% exceeds viability, T/C recorded for Cn1ncnc1[C@H]1c2n[nH]c(=O)c3cc(F)cc(c23)N[C@@H]1c1ccc(F)cc1 + Cc1cccc(N(C)C(=O)C2C(O)CCN2c2nc(C)cc(C(F)(F)F)c2C#N)c1 . Not met

Dear reviewer, please state whether CC[C@@]1(O)C(=O)OCc2c1cc1n(c2=O)Cc2cc3c(CN(C)C)c(O)ccc3nc2-1 + COC1C(OC(N)=O)C(O)C(Oc2ccc3c(O)c(NC(=O)c4ccc(O)c(CC=C(C)C)c4)c(=O)oc3c2C)OC1(C)C has viability, T/C strictly beneath 90%. Not met

###

# Tested on: 677734-321-R-J1-PDC complex spheroid viability
# experiment.description: Anticancer human tumor 677734-321-R-J1-PDC cell line growth inhibition [POLQ];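 further: spheroids exposed to compounds for one week; 100% = vehicle DMSO treated spheroids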
# test.parameters: second compound 0.1 µM; first compound 0.000316 µM; hits give low values
# key: entry, value: viability, T/C
Write down the numeric answer in % and omit the unit.

{"columns": ["compound", "target.system", "result"],
 "data": [
  ["CC[C@@]1(O)C(=O)OCc2c1cc1n(c2=O)Cc2cc3c(CN(C)C)c(O)ccc3nc2-1 + COC1C(OC(N)=O)C(O)C(Oc2ccc3c(O)c(NC(=O)c4ccc(O)c(CC=C(C)C)c4)c(=O)oc3c2C)OC1(C)C", "677734-321-R-J1-PDC complex spheroid viability", 109],
  ["Cn1ncnc1[C@H]1c2n[nH]c(=O)c3cc(F)cc(c23)N[C@@H]1c1ccc(F)cc1 + COC1C(OC(N)=O)C(O)C(Oc2ccc3c(O)c(NC(=O)c4ccc(O)c(CC=C(C)C)c4)c(=O)oc3c2C)OC1(C)C", "677734-321-R-J1-PDC complex spheroid viability", 97.6],
  ["CC[C@@]1(O)C(=O)OCc2c1cc1n(c2=O)Cc2cc3c(CN(C)C)c(O)ccc3nc2-1 + Nc1ccc(C#CCN(C(=O)Cc2ncc(C(F)(F)F)cc2C(F)(F)F)c2ccc(F)cc2)nn1", "677734-321-R-J1-PDC complex spheroid viability", 99.3]
]}

Give the reported value of viability, T/C for this record: Cn1ncnc1[C@H]1c2n[nH]c(=O)c3cc(F)cc(c23)N[C@@H]1c1ccc(F)cc1 + Cc1cccc(N(C)C(=O)C2C(O)CCN2c2nc(C)cc(C(F)(F)F)c2C#N)c1 103

Retrieve viability, T/C measured for CC[C@@]1(O)C(=O)OCc2c1cc1n(c2=O)Cc2cc3c(CN(C)C)c(O)ccc3nc2-1 + Cc1cccc(N(C)C(=O)C2C(O)CCN2c2nc(C)cc(C(F)(F)F)c2C#N)c1 and print it. 103

Give the reported value of viability, T/C for this record: Cn1ncnc1[C@H]1c2n[nH]c(=O)c3cc(F)cc(c23)N[C@@H]1c1ccc(F)cc1 + Nc1ccc(C#CCN(C(=O)Cc2ncc(C(F)(F)F)cc2C(F)(F)F)c2ccc(F)cc2)nn1 92.4

// provenance: PubChem BioAssay AID1963842
